The reported numbers originate from patent US9365604B2.

- System: DLD-1
- Test description: In vitro cytotoxicity assay (CellTiter-Glo)
- Type: cell-based
- Measurement parameters: Homo sapiens, 72 h exposure, CellTiter-Glo
Observed property: IC50

The recorded IC50 for entry Nc1ccn([C@@H]2O[C@H](CO)[C@@H](O)C2(F)F)c(=O)n1 [Gemcitabine, reference compound] equals 22 nM

----------
- Test description: in vitro
- Measurement parameters: human, Caco-2
Below: a set of entries, each annotated with reported efflux ratio.
Keep the answer to the number alone.

CCCCCOC(=O)Nc1nc(=O)n([C@@H]2O[C@H](C)[C@@H](O)[C@H]2O)cc1F :: 3.9

The recorded efflux ratio for entry O=c1[nH]c(=O)n([C@H]2C[C@H](O)[C@@H](CO)O2)cc1F [Floxuridine, reference compound] equals 2

----------
- Test description: Bi-directional permeability in MDCK cells
- Measurement parameters: dog
Observed property: Papp B→A (×10⁻⁶ cm/s)
Give a bare numeral; the unit ×10⁻⁶ cm/s is implied.

The recorded Papp B→A for entry Nc1ccn([C@@H]2O[C@H](CO)[C@@H](O)C2(F)F)c(=O)n1 [Gemcitabine, reference compound] equals 0.12

----------
- Test description: in vitro
- Measurement parameters: dog, MDCK
Observed property: Papp B→A (×10⁻⁶ cm/s)
Give a bare numeral; the unit ×10⁻⁶ cm/s is implied.

The recorded Papp B→A for entry CCCCCOC(=O)Nc1nc(=O)n([C@@H]2O[C@H](C)[C@@H](O)[C@H]2O)cc1F [Capecitabine] equals 0.14
